# TESTED_TARGET: RPS10 (UniProt P46783)
# PROTOCOL: Kd (EC50 corrected by depletion factor)
PROPERTY_NAME: pKd
Please express pKd as -log10 of the molar concentration.

Incoming: Would you mind telling me what pKd value was observed for CUGUCCU ?
Outgoing: 6.93

----------
# TESTED_TARGET: MRPS18B (UniProt Q9Y676)
# PROTOCOL: EC50 of free RNA motif oligo competing protein binding to immobilised probe
PROPERTY_NAME: EC50
Report the figure along with its unit, number first.

Incoming: Would you mind telling me what EC50 value was observed for UAUUUAU ?
Outgoing: 51.4 nM
